- system: Tyrosyl-tRNA synthetase, putative (Trypanosoma cruzi (strain CL Brener))
- Sequence (whole entry): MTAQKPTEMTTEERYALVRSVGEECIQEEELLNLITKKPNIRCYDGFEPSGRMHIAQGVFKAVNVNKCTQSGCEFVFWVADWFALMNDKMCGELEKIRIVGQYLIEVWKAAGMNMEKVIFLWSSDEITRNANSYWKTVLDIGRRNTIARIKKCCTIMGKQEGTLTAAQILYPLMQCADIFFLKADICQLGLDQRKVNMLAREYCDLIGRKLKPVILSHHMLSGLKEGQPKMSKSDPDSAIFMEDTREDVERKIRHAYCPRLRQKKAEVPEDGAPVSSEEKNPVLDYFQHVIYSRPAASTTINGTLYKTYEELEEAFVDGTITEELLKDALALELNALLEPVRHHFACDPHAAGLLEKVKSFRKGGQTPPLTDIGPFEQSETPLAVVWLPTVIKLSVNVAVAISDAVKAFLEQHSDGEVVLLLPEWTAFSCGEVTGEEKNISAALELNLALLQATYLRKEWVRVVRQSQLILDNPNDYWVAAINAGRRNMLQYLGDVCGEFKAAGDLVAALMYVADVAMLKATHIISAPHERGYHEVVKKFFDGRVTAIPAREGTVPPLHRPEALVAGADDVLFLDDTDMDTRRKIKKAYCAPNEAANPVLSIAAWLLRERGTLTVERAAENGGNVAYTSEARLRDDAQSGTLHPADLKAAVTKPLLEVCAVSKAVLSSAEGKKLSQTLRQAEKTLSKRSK
- assay: Trypanosoma cruzi tyrosyl tRNA synthetase (TcYRS) SOP
- Type: functional
- Design: scale not given: direction of the effect not stated beside the values
- experimentalSetup: 30 µM
quantity: Percent Effect (%)
State the answer as a number, implicitly in %.

A selection of reference data follows.
> print(dat)
                                   compound  recordedvalue
1  CCc1nc2n(n1)CC(NCc1noc(-c3ccccc3)n1)CC2 (stereo unspecified)           16.1
2  Cc1cc(N2CCC(N(C)C(=O)c3ccccc3)CC2)nc(C)n1           17.5
3  CCc1cnc(CN(C)C2CCN(CCS(C)(=O)=O)C2)o1 (stereo unspecified)           2.56

Name the recorded Percent Effect of the compound listed here: Cc1nc(C)n(CC2CCCCN2Cc2nnc(C3CC3)o2)n1 (stereo unspecified)
7.32

Name the recorded Percent Effect of the compound listed here: COc1ccc(C(=O)N2CCCC(CNS(C)(=O)=O)C2)cc1F (stereo unspecified)
16.1

* * *

compounds and their reported Percent Effect
- Species on record: Homo sapiens
- assay: To identify inhibition of the IFN signalling (Jak-Stat) pathway via expression of an eGFP reporter gene under the control of an IFN-stimulated response element (ISRE) containing MxA promoter.
- Type: functional
- Set-up: scale not given: direction of the effect not stated beside the values
- experimentalSetup: 30 µM
State the answer as a number, implicitly in %.

A selection of reference data follows.
> print(dat)
                                   compound  readoutunits  recordedvalue
1              O=C(O)c1coc(COc2cccc(F)c2)n1             %          -3.93
2  Cc1csc(N2CCN(Cc3ccccn3)CC2C)n1 (stereo unspecified)             %           19.9
3        O=C(NCc1nnc2n1CCCC2)N1CCc2ccccc2C1             %           4.93

Name the recorded Percent Effect of the compound listed here: c1ccc(-c2cc(CN3CCC(c4ccn[nH]4)CC3)on2)cc1
42.5

Name the recorded Percent Effect of the compound listed here: CC(O)CN1CCC(CNCc2ccc(S(C)(=O)=O)cc2)CC1 (stereo unspecified)
5.76

Name the recorded Percent Effect of the compound listed here: CN(C)CC1CN(CCOc2cccc(C#N)c2)CCO1 (stereo unspecified)
-3.58
